Where do these numbers come from? They come from PubChem BioAssay AID1663.

For each of the compounds below, state its inhibition.
# run_description: inhibitors of platelet dense granule secretion, primary screen, cell-based, MLPCN, human platelets (AID 1663)
# run_conditions: human platelet-rich plasma, SFLLRN dense granule ATP release, luminescence; stronger effect = higher value;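 compounds screened at 7.5 µM in platelet-rich plasma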
In all, about 300,000 compounds went through this assay and about 660 (0.22%) were called active. Many of the other results were omitted from the sample, so actives are more common in it than they were.
API: value field is a number in %; no unit string.

Asked: Quick one: give measured inhibition for CC(C)(C)NC(=O)NC(=O)COC(=O)C1c2ccccc2Oc2ccccc21
Given back: -3.75

Asked: Fill in reported inhibition for this entry: COc1ccc(CCN2C(=O)N(c3ccc(OC)cc3)C(=O)C2CC(=O)Nc2ccc(OC)cc2)cc1 (configuration not stated)
Given back: -2.02

Asked: Please report the measured inhibition for O=C(Cc1cccs1)Nc1nnc(SCc2ccc(F)cc2)s1
Given back: -6.18

Asked: Look up inhibition of COc1ccc(C(=O)COC(=O)c2ccc3ccccc3n2)cc1 and report it.
Given back: -2.98

Asked: Retrieve inhibition measured for CCOC(=O)c1cc2cc3ccccc3cc2oc1=O and print it.
Given back: 8.56

Asked: Provide measured inhibition value, entry: COc1cccc(C(=O)c2cc3ccc(O)cc3oc2=O)c1
Given back: 69.5

Asked: Report inhibition, nothing else, for this compound: CCCCNC(=O)C1(c2ccc(OC)cc2)CCOCC1
Given back: 4.45

Asked: Given the compound CCOC(=O)c1ccc(NC(=O)Cn2cnc3cc(C)c(C)cc32)cc1 , write its reported inhibition.
Given back: 9.16

Asked: Name the recorded inhibition of the item Cc1ccnc(NC(=O)c2ccoc2C)c1 in your answer.
Given back: 50.8

Asked: Please give the documented inhibition of O=C(O)CC/C(=C\c1cc2c(cc1Br)OCO2)c1nc2ccccc2s1
Given back: 17.4

Asked: Provide inhibition value for the following compound: O=C(NCc1ccccc1)C1CCN(C(=O)Cc2ccccc2)CC1
Given back: -35.6

Asked: Please report inhibition for the following compound: C=CCn1c(-c2ccc(Cl)cc2)ccc(C#N)c1=O
Given back: 1.51

Asked: Fill in reported inhibition for this entry: Cc1nc2ccc(C(=O)N/N=C/c3ccc(O)cc3)cc2[nH]1
Given back: -1.64

Asked: Name the recorded inhibition of the item Cc1ccc(C)c(OCCC(=O)OCC(=O)N2CCN(c3ccccc3)CC2)c1 in your answer.
Given back: -18.4

Asked: Give inhibition for Cc1nonc1C(=O)N/N=C/c1ccc(O)cc1
Given back: 103

Asked: Please list inhibition recorded for the compound COc1cc(OC)cc(-c2nnc(SCC(=O)Nc3ccc(C(=O)O)cc3)s2)c1
Given back: -1.66

Asked: Give me measured inhibition, please, for this compound: COc1ccc(C(C(=O)NC(C)(C)C)N(Cc2ccc(F)cc2)C(=O)CCC(=O)Nc2cc(C)on2)cc1 (configuration not stated)
Given back: 2.89

Asked: Return the recorded inhibition value; entry: O=C1/C(=C/c2ccc(F)cc2)SC(=S)N1NS(=O)(=O)c1ccccc1
Given back: -3.17

Asked: Write down inhibition measured for item O=C1[C@@H]2C(c3cccnc3)=NO[C@@H]2C(=O)N1c1ccc(Cl)cc1Cl
Given back: 3.23

Asked: Read the entry Cc1cccnc1CCNC(=O)C1CCC(=O)N(Cc2cccc(F)c2)C1 (configuration not stated) and write its reported inhibition.
Given back: -10.1

Asked: # return recorded inhibition for input CCCC(=O)Nc1cccc(NC(=S)NC(=O)C(C)Oc2ccc(Cl)cc2Cl)c1 (configuration not stated)
Given back: 4.37

Asked: Respond only with inhibition recorded for CCOC(CNC(=O)C(=O)NCC(c1ccco1)N1CCN(c2ccc(OC)cc2)CC1)OCC (configuration not stated)
Given back: -9.05
